molecular target: UniProtKB Q12884; assay: DIANA competition with DNA-linked probe, qPCR; type: binding
MEASURED_ATTRIBUTE: Ki (nM)
Report only the number, with the unit nM understood.

Q) Quickly give me recorded Ki for "Cc1ccc(C)c(CNC(=O)C(=O)[C@@H]2CCCN2C(=O)CNC(=O)c2ccnc3ccccc23)c1"
A) 0.7

* * *

molecular target: fibroblast activation protein (FAP; rhFAP, SLIN-tagged hFAP) (Homo sapiens, UniProt Q12884); assay: biochemical
Sequence (Q12884 35-760): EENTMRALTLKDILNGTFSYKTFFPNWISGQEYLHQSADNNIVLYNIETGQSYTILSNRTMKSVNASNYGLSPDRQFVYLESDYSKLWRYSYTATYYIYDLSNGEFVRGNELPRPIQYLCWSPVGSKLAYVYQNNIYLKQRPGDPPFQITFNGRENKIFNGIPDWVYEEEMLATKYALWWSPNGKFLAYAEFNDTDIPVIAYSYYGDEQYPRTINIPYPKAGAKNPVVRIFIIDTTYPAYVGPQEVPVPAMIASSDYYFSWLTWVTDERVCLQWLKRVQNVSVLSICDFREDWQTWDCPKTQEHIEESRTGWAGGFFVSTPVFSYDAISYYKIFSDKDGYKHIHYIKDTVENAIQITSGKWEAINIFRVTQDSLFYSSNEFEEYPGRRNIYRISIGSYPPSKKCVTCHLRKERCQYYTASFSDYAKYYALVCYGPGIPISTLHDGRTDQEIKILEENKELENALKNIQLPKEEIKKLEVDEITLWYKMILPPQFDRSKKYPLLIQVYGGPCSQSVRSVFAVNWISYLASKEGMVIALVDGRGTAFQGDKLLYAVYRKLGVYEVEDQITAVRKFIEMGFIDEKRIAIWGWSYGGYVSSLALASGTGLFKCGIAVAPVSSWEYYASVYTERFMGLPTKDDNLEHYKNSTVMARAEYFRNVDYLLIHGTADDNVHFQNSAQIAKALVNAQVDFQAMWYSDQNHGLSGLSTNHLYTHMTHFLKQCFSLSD
Structures can show the parent of a compound that is named as a salt.
hey, just use condition met if measured Ki is less than 6 µM, otherwise condition not met

Q) Say whether its Ki is strictly beneath 6 µM. Entry: COc1cccc2c1C(=O)c1c(O)c3c(c(O)c1C2=O)C[C@@](O)(C(=O)CO)C[C@@H]3O[C@H]1C[C@H](N)[C@H](O[C@@H]2CCCCO2)[C@H](C)O1 [Pirarubicin (Hydrochloride)]
A) condition met

Q) Say whether its Ki is strictly beneath 6 µM. Entry: Cc1ccc(C(=O)Nc2ccc(S(=O)(=O)O)c3cc(S(=O)(=O)O)cc(S(=O)(=O)O)c23)cc1NC(=O)c1cccc(NC(=O)Nc2cccc(C(=O)Nc3cc(C(=O)Nc4ccc(S(=O)(=O)O)c5cc(S(=O)(=O)O)cc(S(=O)(=O)O)c45)ccc3C)c2)c1 [Suramin (sodium salt)]
A) condition not met

Q) Say whether its Ki is strictly beneath 6 µM. Entry: "CCOc1nc2cccc(C(=O)OCc3oc(=O)oc3C)c2n1Cc1ccc(-c2ccccc2-c2noc(=O)[nH]2)cc1"
A) condition met

Q) Say whether its Ki is strictly beneath 6 µM. Entry: CCN1CCN(Cc2ccc(Nc3ncc(F)c(-c4cc(F)c5nc(C)n(C(C)C)c5c4)n3)nc2)CC1 [Abemaciclib (methanesulfonate)]
A) condition met

Q) Say whether its Ki is strictly beneath 6 µM. Entry: "CCc1c(Cl)c(O)c(Cl)c(O)c1C(=O)O[C@H]1[C@H](O)[C@H](OC)[C@H](OC/C2=C\C=C\C[C@H](O)/C(C)=C/[C@H](CC)[C@@H](O[C@@H]3OC(C)(C)[C@@H](OC(=O)C(C)C)[C@H](O)[C@@H]3O)/C(C)=C/C(C)=C/C[C@@H]([C@@H](C)O)OC2=O)O[C@@H]1C"
A) condition not met

Q) Say whether its Ki is strictly beneath 6 µM. Entry: "CCOC(=O)n1ccn(C)c1=S"
A) condition not met

Q) Say whether its Ki is strictly beneath 6 µM. Entry: "Cc1cnc(C(=O)N[C@H]2CCCCC/C=C\[C@@H]3C[C@@]3(C(=O)NS(=O)(=O)C3CC3)NC(=O)[C@@H]3C[C@@H](Oc4nc5ccccc5c5ccccc45)CN3C2=O)cn1"
A) condition not met

Q) Say whether its Ki is strictly beneath 6 µM. Entry: CCN(c1cc(-c2ccc(CN3CCOCC3)cc2)cc(C(=O)NCc2c(C)cc(C)[nH]c2=O)c1C)C1CCOCC1 [Tazemetostat (hydrobromide)]
A) condition not met

Q) Say whether its Ki is strictly beneath 6 µM. Entry: CC(=O)[C@]1(O)Cc2c(O)c3c(c(O)c2[C@@H](O[C@H]2C[C@H](N)[C@H](O)[C@H](C)O2)C1)C(=O)c1ccccc1C3=O [Idarubicin (hydrochloride)]
A) condition met

Q) Say whether its Ki is strictly beneath 6 µM. Entry: CCC1=C(C)CN(C(=O)NCCc2ccc(S(=O)(=O)NC(=O)N[C@H]3CC[C@H](C)CC3)cc2)C1=O [Glimepiride]
A) condition not met

Q) Say whether its Ki is strictly beneath 6 µM. Entry: "Cc1cc(-c2ccc(/N=N/c3ccc4c(S(=O)(=O)O)cc(S(=O)(=O)O)c(N)c4c3O)c(C)c2)ccc1/N=N/c1ccc2c(S(=O)(=O)O)cc(S(=O)(=O)O)c(N)c2c1O"
A) condition met

Q) Say whether its Ki is strictly beneath 6 µM. Entry: CCN1CCN(C(=O)N[C@@H](C(=O)N[C@@H]2C(=O)N3C(C(=O)O)=C(CSc4nnnn4C)CS[C@H]23)c2ccc(O)cc2)C(=O)C1=O [Cefoperazone (sodium salt)]
A) condition met

Q) Say whether its Ki is strictly beneath 6 µM. Entry: C[n+]1cc2c3c(ccc2c2ccc4cc5c(cc4c21)OCO5)OCO3 [Sanguinarine (chloride)]
A) condition not met

Q) Say whether its Ki is strictly beneath 6 µM. Entry: CCCC(=O)OCOC(=O)C1=C(C)NC(C)=C(C(=O)OC)C1c1cccc(Cl)c1Cl (stereo not drawn)
A) condition met

Q) Say whether its Ki is strictly beneath 6 µM. Entry: "CC1(C)C(/C=C/C=C/C=C/C=C2\N(CCCCS(=O)(=O)O)c3ccc4ccccc4c3C2(C)C)=[N+](CCCCS(=O)(=O)[O-])c2ccc3ccccc3c21"
A) condition met

Q) Say whether its Ki is strictly beneath 6 µM. Entry: COc1ccc2nc3cc(Cl)ccc3c(Nc3cc(CN4CCCC4)c(O)c(CN4CCCC4)c3)c2n1 [Pyronaridine (tetraphosphate)]
A) condition not met

Q) Say whether its Ki is strictly beneath 6 µM. Entry: CC(=O)OCC1=C(C(=O)O)N2C(=O)[C@@H](NC(=O)CSc3ccncc3)[C@H]2SC1 [Cephapirin (sodium)]
A) condition not met

Q) Say whether its Ki is strictly beneath 6 µM. Entry: "CCOc1ccc(Nc2ccc(/C(=C3/C=CC(=[N+](CC)Cc4cccc(S(=O)(=O)[O-])c4)C=C3C)c3ccc(N(CC)Cc4cccc(S(=O)(=O)O)c4)cc3C)cc2)cc1"
A) condition met

Q) Say whether its Ki is strictly beneath 6 µM. Entry: "CNC(=O)c1ccc(-c2cnc3ncc(Cc4ccc5ncccc5c4)n3n2)cc1F"
A) condition met

Q) Say whether its Ki is strictly beneath 6 µM. Entry: CC(=C(CCOC(=O)C(C)C)SSC(CCOC(=O)C(C)C)=C(C)N(C=O)Cc1cnc(C)nc1N)N(C=O)Cc1cnc(C)nc1N (stereo in doubt)
A) condition met

Q) Say whether its Ki is strictly beneath 6 µM. Entry: C=Cc1c(C)c2cc3nc(c(CC(=O)N[C@@H](CC(=O)O)C(=O)O)c4[nH]c(cc5nc(cc1[nH]2)C(C)=C5CC)c(C)c4C(=O)O)[C@@H](CCC(=O)O)[C@@H]3C [Talaporfin (sodium)]
A) condition met

Q) Say whether its Ki is strictly beneath 6 µM. Entry: "COc1cc2/c(=N/c3ccc(Br)cc3F)nc[nH]c2cc1OCC1CCN(C)CC1"
A) condition not met

Q) Say whether its Ki is strictly beneath 6 µM. Entry: "COc1ccc(-c2cc(=O)c3c(O)c(OC)c(O)cc3o2)cc1OC"
A) condition met

Q) Say whether its Ki is strictly beneath 6 µM. Entry: CCN(CC)CCOc1ccc2c(c1)C(=O)c1cc(OCCN(CC)CC)ccc1-2 [Tilorone (dihydrochloride)]
A) condition met

Q) Say whether its Ki is strictly beneath 6 µM. Entry: "CC/C=C\C/C=C\C/C=C\C/C=C\C/C=C\C/C=C\CCC(=O)O"
A) condition met

Q) Say whether its Ki is strictly beneath 6 µM. Entry: COc1cccc2c1C(=O)c1c(O)c3c(c(O)c1C2=O)C[C@@](O)(C(C)=O)C[C@@H]3O[C@H]1C[C@H](N)[C@H](O)[C@H](C)O1 [Daunorubicin (hydrochloride)]
A) condition not met

Where do the numbers come from? From paper doi:10.1101/2024.06.25.600598v1.
